Data provenance: the RepoRT retention time repository

Assay: HILIC, Waters ACQUITY UPLC BEH Amide, 100 × 2.1 mm, 1.7 µm; A: water + 0.125% formic acid + 10 mM ammonium formate; B: 5% water + 95% acetonitrile + 0.125% formic acid + 10 mM ammonium formate; gradient (min/%B) 0/100 2/100 7.7/70 9.5/40 10.25/30 12.75/100 17/100
Conditions: stereoisomer not certain
Property Measured: LC retention time (min)
Numeric only. Scale: min

Ask | # input compound: Nc1ccc(O)c(C(=O)O)c1 ; wanted: its LC retention time
Reply | 3.89

Ask | Which LC retention time value belongs to NC1CCN(c2cccc(Cl)n2)CC1 ?
Reply | 4.85

Ask | Request the reported LC retention time associated with COc1ccc(C=CC(=O)Nc2ccccc2C(=O)O)cc1OC
Reply | 1.26

Ask | Fill blank: measured LC retention time of the compound CC(C)c1ccc2oc3nc(N)c(C(=O)O)cc3c(=O)c2c1 is ____.
Reply | 1.81

Ask | Sample CC(O)C(C)O (stereo unspecified) — what was its LC retention time?
Reply | 3.34

Ask | I am curious: what LC retention time value has been reported for CCOP(=O)(OCC)Oc1ccc([N+](=O)[O-])cc1 ?
Reply | 1.02

Ask | Which LC retention time reading was recorded for the compound CC(=O)C1(O)Cc2c(O)c3c(c(O)c2C(OC2CC(N)C(O)C(C)O2)C1)C(=O)c1ccccc1C3=O (stereo unspecified) ?
Reply | 5.42

Ask | Given the entry CC(c1ncncc1F)C(O)(Cn1cncn1)c1ccc(F)cc1F (stereo unspecified) , report its measured LC retention time.
Reply | 1.02

Ask | # get_value(readout='LC retention time', item= CC(C)(C)NC(=O)C1CC2CCCCC2CN1CC(O)C(Cc1ccccc1)NC(=O)C(CC(N)=O)NC(=O)c1ccc2ccccc2n1 (stereo unspecified) )
Reply | 2.85

Ask | Please give the measured LC retention time for this compound: CC(=O)NC(CCC(=O)O)C(=O)O (stereo unspecified)
Reply | 7.67

Ask | Return reported LC retention time; argument: NC(CO)C(=O)NC(Cc1ccc(O)cc1)C(=O)O (stereo unspecified)
Reply | 8.44

Ask | # query: LC retention time of entry O=[N+]([O-])c1cc[n+]([O-])c2ccccc12 [4-Nitroquinoline-N-oxide]
Reply | 1.14

Ask | Give its LC retention time value. Item: CC(C)CC(NC(=O)C(O)C(N)Cc1ccccc1)C(=O)O (stereo unspecified)
Reply | 5.98

Ask | # get_value(readout='LC retention time', item= CC(C)CC(O)C(=O)O (stereo unspecified) [2-Hydroxy-4-methylpentanoic acid] )
Reply | 1.57

Ask | I would be grateful if you could share the reported LC retention time for NCC(O)CCC(N)C(=O)O (stereo unspecified) [delta-Hydroxylysine] .
Reply | 9.77

Ask | Consider the compound Nc1c2c(nc3ccccc13)CCCC2 and give its measured LC retention time.
Reply | 3.86

====

Test: HILIC, Waters ACQUITY UPLC BEH Amide, 100 × 2.1 mm, 1.7 µm; A: water + 0.125% formic acid + 10 mM ammonium formate; B: 5% water + 95% acetonitrile + 0.125% formic acid + 10 mM ammonium formate; gradient (min/%B) 0/100 2/100 7.7/70 9.5/40 10.25/30 12.75/100 17/100
Details: stereoisomer not certain
Each record's class is read off its LC retention time using these ranges: low (below 2 min), middle (2 min to below 5 min), high (5 min or more)

Ask | Class (by measured LC retention time) for CNCCc1cnc[nH]1 [N-alpha-methylhistamine]
Reply | high

Ask | Which bin, given its LC retention time, does O=C1c2cccc3c2C(CCC3)CN1C1CN2CCC1CC2 (stereo unspecified) [Palonosetron] occupy?
Reply | middle

Ask | Quick check: band for CC(=O)Nc1ccccc1 [Acetanilide]
Reply | low

Ask | Assign a category based on measured LC retention time for OCc1cc(C(O)CNCCCCCCOCCCCc2ccccc2)ccc1O (stereo unspecified) [Salmeterol] and give only the class name.
Reply | middle

Ask | Sort into band: O=C(O)c1ccnc2ccccc12 [4-Quinolinecarboxylic acid]
Reply | middle

Ask | Place this compound in its band: Clc1cccc(Cl)c1NC1=NCCN1 [Clonidine]
Reply | middle

Ask | Which category does the recorded LC retention time put CCC1C(=O)OCC1Cc1cncn1C (stereo unspecified) [Pilocarpine] in?
Reply | middle

Ask | Please report the category associated with CC12CCC3c4ccc(O)cc4CCC3C1CCC2=O (stereo unspecified) [1,3,5(10)-Estratrien-3-ol-17-one] , nothing else.
Reply | low

Ask | Determine which band this compound sits in: COC(=O)CC(O)(CCCC(C)(C)O)C(=O)OC1C(OC)=CC23CCCN2CCc2cc4c(cc2C13)OCO4 (stereo unspecified) [Homoharringtonine]
Reply | middle

Ask | # classify by LC retention time band: CN=C(NC)NCCCC(N)C(=O)O (stereo unspecified) [SDMA]
Reply | high

Ask | Into which category would you place CCOC(=O)COc1cc(-c2nn(C)c(OC(F)F)c2Cl)c(F)cc1Cl [Pyrafluefen-ethyl] ?
Reply | low

Ask | Given NCCCCCN [Cadaverine] , name the class its LC retention time places it in.
Reply | high

Ask | Please let me know in which category the item CN1C(=O)C(O)N=C(c2ccccc2)c2cc(Cl)ccc21 (stereo unspecified) [Temazepam] belongs.
Reply | low

Ask | Which LC retention time category applies to NC(=O)NCCCC[C@H](N)C(=O)O [L-Homocitrulline] here?
Reply | high

Ask | Category of COc1cc(-c2[o+]c3cc(O)cc(O)c3cc2OC2OC(CO)C(O)C(O)C2O)cc(O)c1O (stereo unspecified) [Petunidin-3-glucoside] :
Reply | middle

Ask | Assign a category based on measured LC retention time for COCC1=C(C(=O)OC(C)OC(=O)OC(C)C)N2C(=O)C(NC(=O)C(=NOC)c3csc(N)n3)C2SC1 (stereo unspecified) and give only the class name.
Reply | low

Ask | Entry O=C(O)COCCN1CCN(C(c2ccccc2)c2ccc(Cl)cc2)CC1 (stereo unspecified) [Levocetirizine] belongs to which category?
Reply | middle

Ask | For CNc1ccccc1 [N-Methylaniline] , which LC retention time bin applies?
Reply | low

Ask | Exam item: assign CC1(C)SC2C(N=CN3CCCCCC3)C(=O)N2C1C(=O)O (stereo unspecified) [Mecillinam] to the correct category.
Reply | middle
